Data origin: a melting point compilation (Tetko et al.; mined from patent text by program, amines drawn as free bases though some values may be those of a salt)

recorded endpoint: melting point (°C)

(1) COc1ccc2[nH]cc(C3=C(c4cc(OC)c(OC)c(OC)c4)C(=O)NC3=O)c2c1
(2) Clc1ccc(C=CC=Cc2ccccc2)cc1
Challenge: Quick check, higher melting point between 1 and 2 ? Response format: the label of the selected entry.
Response given: 1
(1: 268 °C, 2: 161 °C)

====

Below is a list of entries, each paired with its recorded melting point value.

The following molecules have reported results that may help.
molecule	melting point
CC(COc1ccc(CC2SC(=O)NC2=O)cc1)C1CC(COc2ccccc2)OC1=S (centres undefined)	53 to 58 °C
CN(C)c1ccc2c(c1)NC(=O)CC2	154 to 156 °C
CC1CC2C3CCC4CC(O)CCC4(C)C3C(O)CC2(C)C1C1(C)OCCO1 (centres undefined)	109 to 111 °C
O=C1c2c(O)cccc2C(=CCc2ccccc2)c2cccc(O)c21	128 to 129 °C

Next up:
Challenge: # get_value(readout='melting point', item= "O=C(O)c1ncn(C(c2ccccc2)c2ccccc2)c1C(=O)O" )
Response given: 194 °C
